The reported numbers originate from paper PMC2828546.

Here, each record is paired with measured IC50 data.
Target: human hexosaminidase A/B
Experiment: HexA/B inhibition, fluorogenic 4MU-NAG substrate
Conditions: 230 μM substrate (Km), 15 min, pH 5.7
# do not omit the unit; it follows the number

> print(dat)
                                   compound  readout.type  reported.result
1  CC(=O)N1CCN(c2ccc(OCC3COC(Cn4ccnc4)(c4ccc(Cl)cc4Cl)O3)cc2)CC1 (centres unmarked)          IC50            11 µM
2  CC1CCC(NC(=O)N(CCCl)N=O)CC1 (centres unmarked)          IC50          2500 µM
3                        CNc1ncnc2nc[nH]c12          IC50           300 µM
4  Cn1c(=O)c2c(ncn2CC(O)CO)n(C)c1=O (centres unmarked)          IC50           200 µM

Qu. // map O=C1CC2(CCCC2)CC(=O)N1CCCCN1CCN(c2ncccn2)CC1 to recorded IC50 (system: human hexosaminidase A/B)
Ans. 47 µM

* * *

Target: CpOGA (Clostridium perfringens, UniProt Q0TR53)
Sequence (Q0TR53 31-624 limits assumed): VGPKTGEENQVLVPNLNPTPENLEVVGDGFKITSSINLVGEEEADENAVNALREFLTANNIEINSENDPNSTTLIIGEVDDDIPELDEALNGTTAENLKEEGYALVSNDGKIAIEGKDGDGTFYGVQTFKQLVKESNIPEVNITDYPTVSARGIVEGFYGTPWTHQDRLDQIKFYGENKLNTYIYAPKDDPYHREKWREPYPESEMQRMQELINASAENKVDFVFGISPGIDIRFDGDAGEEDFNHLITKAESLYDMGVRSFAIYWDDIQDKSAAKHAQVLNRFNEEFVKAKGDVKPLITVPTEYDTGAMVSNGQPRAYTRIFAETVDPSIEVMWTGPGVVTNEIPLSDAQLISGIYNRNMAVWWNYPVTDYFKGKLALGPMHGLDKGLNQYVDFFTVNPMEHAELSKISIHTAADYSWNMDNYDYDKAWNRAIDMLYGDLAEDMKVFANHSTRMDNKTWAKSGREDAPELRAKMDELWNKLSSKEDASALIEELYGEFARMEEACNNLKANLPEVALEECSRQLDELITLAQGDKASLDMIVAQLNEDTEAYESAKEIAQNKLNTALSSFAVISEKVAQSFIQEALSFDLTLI
Assay: biochemical
readout type: IC50 (µM)
Give your result in µM as a bare value.

Qu. What measured IC50 goes with Cn1c(=O)c2c(ncn2CC(O)CO)n(C)c1=O (stereo not shown) [Diprophylline, diprophylline] ?
Ans. 60
